Assay: Individual serum elimination rate and half-life (linear regression per employee);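 note: half-life in years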
Conditions: individual estimate, subject 9, 5 samples
ENDPOINT_LABEL: HL (half-life) (year)
All answers are understood in year, so give the number only.

Can you share its HL (half-life)? I mean this compound: O=S(=O)(O)C(F)(F)C(F)(F)C(F)(F)C(F)(F)C(F)(F)C(F)(F)C(F)(F)F
15

Next:
Can you share its HL (half-life)? I mean this compound: O=S(=O)(O)C(F)(F)C(F)(F)C(F)(F)C(F)(F)C(F)(F)F
1.0

Likewise for O=S(=O)(O)C(F)(F)C(F)(F)C(F)(F)C(F)(F)F ?
0.1

Likewise for O=S(=O)(O)C(F)(F)C(F)(F)C(F)(F)C(F)(F)C(F)(F)C(F)(F)C(F)(F)C(F)(F)F ?
1.8

----------
Experiment: PFAS levels in serum samples of airport employees (LC/MS/MS)
Conditions: 2nd sampling (October 2018), count 17
Label t when Serum PFAS level, 75 percentile is at or above 1; anything below gets f.

Sample answers from the record:
Is Serum PFAS level, 75 percentile for O=C(O)C(F)(F)C(F)(F)C(F)(F)C(F)(F)C(F)(F)C(F)(F)C(F)(F)F [PFOA, perfluorooctanoic acid] at or above 1?
t

Likewise for O=S(=O)(O)C(F)(F)C(F)(F)C(F)(F)C(F)(F)C(F)(F)F [PFPeS, perfluoropentane sulfonic acid] ?
t

Next:
Is Serum PFAS level, 75 percentile for O=S(=O)(O)C(F)(F)C(F)(F)C(F)(F)C(F)(F)C(F)(F)C(F)(F)C(F)(F)F [PFHpS, perfluoroheptane sulfonic acid] at or above 1?
t

Likewise for O=C(O)C(F)(F)C(F)(F)C(F)(F)C(F)(F)C(F)(F)C(F)(F)F [PFHpA, perfluoroheptanoic acid] ?
f

Likewise for O=S(=O)(O)C(F)(C(F)(F)F)C(F)(F)C(F)(F)C(F)(F)C(F)(F)C(F)(F)C(F)(F)F (stereo not drawn) [1m-PFOS, perfluoro-1-methylheptanesulfonate] ?
t

----------
Consider the following compounds and their measured Relative composition of PFAS in serum, weight basis readings.
Assay: PFAS levels in serum samples of airport employees (LC/MS/MS)
Details: first serum samples, all 26 airport employees
All answers are understood in %, so give the number only.

Study these solved cases before continuing.
Can you share its Relative composition of PFAS in serum, weight basis? I mean this compound: O=C(O)C(F)(F)C(F)(F)C(F)(F)C(F)(F)C(F)(F)C(F)(F)F
0.4

Likewise for O=C(O)C(F)(F)C(F)(F)C(F)(F)C(F)(F)C(F)(F)F ?
0.3

Likewise for O=C(O)C(F)(F)C(F)(F)C(F)(F)C(F)(F)C(F)(F)C(F)(F)C(F)(F)F ?
8.2

Likewise for O=S(=O)(O)C(F)(F)C(F)(F)C(F)(F)C(F)(F)C(F)(F)C(F)(F)C(F)(F)C(F)(F)F ?
8.6

Likewise for O=S(=O)(O)C(F)(F)C(F)(F)C(F)(F)C(F)(F)C(F)(F)C(F)(F)C(F)(F)F ?
1.2

Next:
Can you share its Relative composition of PFAS in serum, weight basis? I mean this compound: O=S(=O)(O)C(F)(F)C(F)(F)C(F)(F)C(F)(F)F
0.3

Likewise for O=S(=O)(O)C(F)(F)C(F)(F)C(F)(F)C(F)(F)C(F)(F)C(F)(F)F ?
68.9

Likewise for O=S(=O)(O)C(F)(F)C(F)(F)C(F)(F)C(F)(F)C(F)(F)F ?
6.3

----------
Test: PFAS levels in serum samples of airport employees (LC/MS/MS)
Conditions: 2nd sampling (October 2018), count 17
ENDPOINT_LABEL: Serum PFAS level, Min
Respond numerically, and do not add a unit to the figure.

Can you share its Serum PFAS level, Min? I mean this compound: O=C(O)C(F)(F)C(F)(F)C(F)(F)C(F)(F)C(F)(F)C(F)(F)C(F)(F)F
4.1

Likewise for O=C(O)C(F)(F)C(F)(F)C(F)(F)C(F)(F)C(F)(F)F ?
0.14

Likewise for O=S(=O)(O)C(F)(C(F)(F)F)C(F)(F)C(F)(F)C(F)(F)C(F)(F)C(F)(F)C(F)(F)F (stereo not drawn) [1m-PFOS, perfluoro-1-methylheptanesulfonate] ?
0.26

Likewise for O=S(=O)(O)C(F)(F)C(F)(F)C(F)(F)C(F)(F)C(F)(F)C(F)(F)C(F)(F)F ?
0.45

Likewise for O=C(O)C(F)(F)C(F)(F)C(F)(F)C(F)(F)C(F)(F)C(F)(F)F ?
0.07

Likewise for O=S(=O)(O)C(F)(F)C(F)(F)C(F)(F)C(F)(F)C(F)(F)C(F)(F)C(F)(F)C(F)(F)F ?
4.1

Likewise for O=S(=O)(O)C(F)(F)C(F)(F)C(F)(F)C(F)(F)C(F)(F)C(F)(F)F ?
18

Here's the next entry for you.
Can you share its Serum PFAS level, Min? I mean this compound: O=S(=O)(O)C(F)(F)C(F)(F)C(F)(F)C(F)(F)C(F)(F)F
2.3

----------
Assay: Individual serum elimination rate and half-life (linear regression per employee);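 note: half-life in years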
Settings: individual estimate, subject 10, 5 samples
ENDPOINT_LABEL: HL (half-life) (year)
All answers are understood in year, so give the number only.

Study these solved cases before continuing.
Can you share its HL (half-life)? I mean this compound: O=S(=O)(O)C(F)(F)C(F)(F)C(F)(F)C(F)(F)C(F)(F)F
1.2

Likewise for O=C(O)C(F)(F)C(F)(F)C(F)(F)C(F)(F)C(F)(F)F ?
1.9

Likewise for O=S(=O)(O)C(F)(C(F)(F)F)C(F)(F)C(F)(F)C(F)(F)C(F)(F)C(F)(F)C(F)(F)F (centres unmarked) [1m-PFOS, perfluoro-1-methylheptanesulfonate] ?
1.2

Next:
Can you share its HL (half-life)? I mean this compound: O=S(=O)(O)C(F)(F)C(F)(F)C(F)(F)C(F)(F)C(F)(F)C(F)(F)C(F)(F)F
1.8

Likewise for O=S(=O)(O)C(F)(F)C(F)(F)C(F)(F)C(F)(F)F ?
0.2

----------
Test: Individual serum elimination rate and half-life (linear regression per employee);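 note: half-life in years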
Settings: individual estimate, subject 12, 5 samples
Consider the following compounds and their measured HL (half-life) readings.
All answers are understood in year, so give the number only.

Can you share its HL (half-life)? I mean this compound: O=S(=O)(O)C(F)(F)C(F)(F)C(F)(F)C(F)(F)C(F)(F)C(F)(F)C(F)(F)C(F)(F)F [L-PFOS, linear perfluorooctane sulfonic acid]
0.9

Likewise for O=S(=O)(O)C(F)(F)C(F)(F)C(F)(F)C(F)(F)F [PFBS, perfluorobutane sulfonic acid] ?
0.1

Likewise for O=S(=O)(O)C(F)(F)C(F)(F)C(F)(F)C(F)(F)C(F)(F)F [PFPeS, perfluoropentane sulfonic acid] ?
0.6

Next:
Can you share its HL (half-life)? I mean this compound: O=S(=O)(O)C(F)(F)C(F)(F)C(F)(F)C(F)(F)C(F)(F)C(F)(F)C(F)(F)F [PFHpS, perfluoroheptane sulfonic acid]
1.1

----------
Assay: PFAS levels in serum samples of airport employees (LC/MS/MS)
Settings: median of first serum samples, all 26 airport employees
Consider the following molecules and their measured Serum concentration, molar basis readings.
Respond numerically, and do not add a unit to the figure.

Study these solved cases before continuing.
Can you share its Serum concentration, molar basis? I mean this molecule: O=C(O)C(F)(F)C(F)(F)C(F)(F)C(F)(F)C(F)(F)C(F)(F)F [PFHpA, perfluoroheptanoic acid]
0.0013

Likewise for O=S(=O)(O)C(F)(F)C(F)(F)C(F)(F)C(F)(F)C(F)(F)F [PFPeS, perfluoropentane sulfonic acid] ?
0.020

Likewise for O=C(O)C(F)(F)C(F)(F)C(F)(F)C(F)(F)C(F)(F)C(F)(F)C(F)(F)F [PFOA, perfluorooctanoic acid] ?
0.022

Likewise for O=S(=O)(O)C(F)(F)C(F)(F)C(F)(F)C(F)(F)C(F)(F)C(F)(F)C(F)(F)F [PFHpS, perfluoroheptane sulfonic acid] ?
0.0029

Likewise for O=C(O)C(F)(F)C(F)(F)C(F)(F)C(F)(F)C(F)(F)F [PFHxA, perfluorohexanoic acid] ?
0.0012

Next:
Can you share its Serum concentration, molar basis? I mean this molecule: O=S(=O)(O)C(F)(F)C(F)(F)C(F)(F)C(F)(F)C(F)(F)C(F)(F)F [PFHxS, perfluorohexane sulfonic acid]
0.19

Likewise for O=S(=O)(O)C(F)(F)C(F)(F)C(F)(F)C(F)(F)F [PFBS, perfluorobutane sulfonic acid] ?
0.0011

----------
Consider the following compounds and their measured HL (half-life) readings.
Assay: Individual serum elimination rate and half-life (linear regression per employee);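 note: half-life in years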
Settings: individual estimate, subject 15, 5 samples
All answers are understood in year, so give the number only.

Study these solved cases before continuing.
Can you share its HL (half-life)? I mean this compound: O=S(=O)(O)C(F)(F)C(F)(F)C(F)(F)C(F)(F)C(F)(F)F
0.3

Likewise for O=S(=O)(O)C(F)(F)C(F)(F)C(F)(F)C(F)(F)C(F)(F)C(F)(F)C(F)(F)C(F)(F)F ?
1.3

Likewise for O=S(=O)(O)C(F)(C(F)(F)F)C(F)(F)C(F)(F)C(F)(F)C(F)(F)C(F)(F)C(F)(F)F (stereo not shown) [1m-PFOS, perfluoro-1-methylheptanesulfonate] ?
0.6

Here's the next entry for you.
Can you share its HL (half-life)? I mean this compound: O=C(O)C(F)(F)C(F)(F)C(F)(F)C(F)(F)C(F)(F)F
0.3
